- system: CB1 (UniProt P21554)
- procedure.details: CB1 radioligand binding assay
- Parameters: species or system human
- protocol.conditions: read-out: Ki (CB1) in nM
- Procedure: The target compounds were evaluated in vitro at the human CB1 receptor, stably expressed into Chinese hamster ovary (CHO) cells by utilizing radioligand binding studies. The binding constant for the synthesized compounds were determined by using radioligand binding assay in mouse brain membranes as well as the target compounds were evaluated in vitro at the human CB1 receptor, stably expressed into Chinese hamster ovary (CHO) cells as well as mouse brain membrane CB1. […]
measurement.name: Ki (nM)
One number for each entry, in nM.

Value (Ki, CB1 (UniProt P21554)) for record C[Se]/C(N)=N\C(=N\S(=O)(=O)c1ccc(Cl)cc1)N1CCC(c2ccccc2)C(c2ccc(Cl)cc2)=N1 (stereo not shown) [Compound 12a] = 45
